Cited source: patent US20250034275A1

Molecular target: T1, human Trop-2-His (human, UniProt P09758 27-274, limits assumed)
T1 construct: by analogy with the macaque construct it is probably the extracellular domain with a His tag; also called Trop-2-His protein
T1 sequence: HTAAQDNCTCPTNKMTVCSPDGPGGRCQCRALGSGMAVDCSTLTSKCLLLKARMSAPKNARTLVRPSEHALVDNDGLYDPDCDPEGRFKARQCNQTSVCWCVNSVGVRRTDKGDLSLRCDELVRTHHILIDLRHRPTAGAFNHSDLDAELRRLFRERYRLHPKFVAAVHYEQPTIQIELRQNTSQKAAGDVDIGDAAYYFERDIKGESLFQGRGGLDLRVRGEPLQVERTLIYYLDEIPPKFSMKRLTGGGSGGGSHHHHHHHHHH
Experiment: ELISA, plate-coated human Trop-2-His
Recorded Metric: EC50
Number first, unit second.

[
  {
    "Binder": "hz-Ab2-1.3 (antibody, human IgG1, kappa, V domains shown, Humanized antibody) VH: QVQLQESGPGLVKPSETLSLTCTVSGFSLTYYGIDWIRQPPGKGLEWIGVIWGSGNTKYNSALKSRVTISKDNSKSQFSLKLSSVTAADTAVYYCARFYEGFAYWGQGTLVTVSS VL: DIQMTQSPSSLSASVGDRVTITCKASQDINSYLSWFQQKPGKAPKTLIYRANRLVEGVPSRFSGSGSGQDYTLTISSLQPEDFATYYCLQYDEFPLTFGQGTKVEIKR",
    "EC50": "0.081 nM"
  },
  {
    "Binder": "ch-Ab21 (antibody, human IgG1, kappa, V domains shown, Mouse VH/VL on human IgG1 and human kappa constant regions; also called chimeric antibody of Ab21) VH: EVQLKQSGPGLVQPSQSLSITCTVSGFSLRNYGVHWVRQSPGKGLEWLGVIWSSGTTDYNAAFISRLSITKDNSKSQVFFKMNSLQVDDTAIYNCARDGDYDYYTMDYWGQGTSVTVSS VL: AIVLTQSPASLAVSLGQRATISCRASKSVSTSAYSYIHWYQQKPGQPPKLLIYLTSNLESGVPARFSGSGSGTDFTLNIHPVEEEDAATYYCQHSRELPYTFGGGTKLEIKR",
    "EC50": "0.165 nM"
  }
]

Consider the additional binder presented here.
Query block: For the binder hz-Ab2-1.2 (antibody, human IgG1, kappa, V domains shown, Humanized antibody) VH: EVQLVESGPGLIQPGGSLRLSCAVSGFSLTYYGIDWVRQPPGKGLEWVGVIWGSGNTKYNYALKSRLTISKDNSKSTLYLQMNSLRAEDTAVYYCARFYEGFAYWGQGTLVTVSS VL: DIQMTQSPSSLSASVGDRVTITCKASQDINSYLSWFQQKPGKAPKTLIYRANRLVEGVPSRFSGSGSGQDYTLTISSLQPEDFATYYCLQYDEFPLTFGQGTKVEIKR , report EC50.
Result block: 0.076 nM
